- Tested System: CDK2/cyclin A (Homo sapiens)
- Construct: cyclin A: E. coli
- Procedure Summary: Inhibition of CDK2/cyclin A retinoblastoma kinase activity (Ki; % inhibition)
- Measurement Setup: apparent Ki, CDK2/cyclin A, Rb substrate
- Experimental: Cyclin-dependent kinase activity was measured by quantifying the enzyme-catalyzed, time-dependent incorporation of radioactive phosphate from [^32P]ATP or [^33P]ATP into a protein substrate. […] The phosphorylated substrate was then captured on a nitrocellulose or phosphocellulose membrane using a 96-well filtration manifold, and unincorporated radioactivity was removed by repeated washing with 0.85% phosphoric acid. Radioactivity was quantified by exposing the dried membranes to a phosphorimager. […]
Structures can show the parent of a compound that is named as a salt.
Metric: Ki (nM)

Please review the following examples before continuing.
Nc1nc(Nc2ccc(C(=O)NCC3CCCCN3)cc2)sc1C(=O)c1c(F)cccc1F (centres unmarked) [Example A33, Trifluoroacetate Salt] | 91
C[C@@H](CN(C)C)N(C)C(=O)c1ccc(Nc2nc(N)c(C(=O)c3c(F)cccc3F)s2)cc1 | 223
C[C@@H](NC(=O)c1ccc(Nc2nc(N)c(C(=O)c3c(F)cccc3F)s2)cc1)C(=O)O [Example A65, Trifluoroacetic Acid Salt] | 160
CN1CCC[C@H]1CNC(=O)c1ccc(Nc2nc(N)c(C(=O)c3ccccc3S(C)(=O)=O)s2)cc1 [Example A73, Trifluoroacetic Acid Salt] | 1200
Cc1cc(F)c(C(=O)c2sc(Nc3ccc(C(=O)NC[C@@H]4CCCN4C)cc3)nc2N)c(F)c1 | 8.5
C[C@H](NC(=O)c1ccc(Nc2nc(N)c(C(=O)c3c(F)cccc3F)s2)cc1)[C@@H]1CCCN1C | 14.6
CC(=O)N(C)c1ccc(NC(=O)c2ccc(Nc3nc(N)c(C(=O)c4c(F)cccc4F)s3)cc2)cc1 | 62
Nc1nc(Nc2ccc(C(=O)NCCc3ccc(O)cc3)cc2)sc1C(=O)c1c(F)cccc1F | 60

a. CC1(C)CC(CNC(=O)c2ccc(Nc3nc(N)c(C(=O)c4c(F)cccc4F)s3)cc2)C(C)(C)N1 (centres unmarked) [Example A56, Dihydrochloride Salt]
b. Nc1nc(Nc2ccc(C(=O)NCCNc3ccccc3)cc2)sc1C(=O)c1c(F)cccc1F
c. Nc1nc(Nc2ccc(C(=O)NCCOCCO)cc2)sc1C(=O)c1c(Cl)cccc1Cl
d. CN(C)CCN1C(=O)c2ccc(Nc3nc(N)c(C(=O)c4c(F)cccc4F)s3)cc2C1=O
e. Cc1ccncc1C(=O)c1sc(Nc2ccc(C(=O)NC[C@@H]3CCCN3C)cc2)nc1N [Example A59, Hydrochloride Salt]
In this exercise, place the 5 molecules in ascending sequence of their recorded Ki. // format: requested-order list of labels b, a, c, d, e
